methodDescription: In vitro Inhibition of fibrin clot formation relative to a blank control after thrombin addition to plasma in human
Assay type: functional, cell-free
readoutLabel: pIC50
Numbers only, as −log10 of the molar value.

Data request: Could you tell me which pIC50 is on file for H-FEEIPEEYLQ-OH ?
Data returned: 4.47

Numbers sourced from ChEMBL document CHEMBL1124098.
